protocol.summary: Drug interaction: effect of vibegron on conmed PK
study.conditions: human, in vivo, 4 mg
measured.metric: Cmax (ng/mL)
Answers are plain numbers, in ng/mL.

### Prompt Give reported Cmax value for Cc1ccc(O)c([C@H](CCN(C(C)C)C(C)C)c2ccccc2)c1 [Tolterodine ER, reference compound]
### Response 2.28

###

protocol.summary: Multiple rising dose Phase 1 PK, healthy subjects, day 14 (young males unless stated)
Assay type: in vivo, human
study.conditions: male, human, plasma, oral, 50 mg, 50 mg QD; read-out: AUC0-24
measured.metric: AUC(0-t)
Number first, unit second: that is the form wanted.

### Prompt Give reported AUC(0-t) value for O=C(Nc1ccc(C[C@@H]2CC[C@H]([C@H](O)c3ccccc3)N2)cc1)[C@@H]1CCc2nccc(=O)n21
### Response 0.507 µg·h/mL

###

protocol.summary: Multiple rising dose Phase 1 PK, healthy subjects, day 14 (young males unless stated)
Format: in vivo, human
study.conditions: male, human, plasma, oral, 150 mg, 150 mg QD, middle-aged male, after 28 days; read-out: t1/2 (converted)
measured.metric: half-life

### Prompt Give reported half-life value for O=C(Nc1ccc(C[C@@H]2CC[C@H]([C@H](O)c3ccccc3)N2)cc1)[C@@H]1CCc2nccc(=O)n21 [Vibegron]
### Response 72.7 h

###

protocol.summary: Multiple rising dose Phase 1 PK, healthy subjects, day 14 (young males unless stated)
Assay type: in vivo, human
study.conditions: both sexes, human, plasma, oral, 100 mg, 100 mg QD, elderly male and female; read-out: Cmax
measured.metric: Cmax
Number first, unit second: that is the form wanted.

### Prompt Give reported Cmax value for O=C(Nc1ccc(C[C@@H]2CC[C@H]([C@H](O)c3ccccc3)N2)cc1)[C@@H]1CCc2nccc(=O)n21
### Response 224 ng/mL

###

protocol.summary: clinical
study.conditions: human, in vivo, 0.15 mg, Cmax
measured.metric: Cmax (ng/mL)
Give bare numbers, in ng/mL.

### Prompt Give reported Cmax value for C#C[C@]1(O)CC[C@H]2[C@@H]3CCC4=CC(=O)CC[C@@H]4[C@H]3CC[C@@]21CC
### Response 2.07

###

protocol.summary: Drug interaction: effect of conmed on vibegron PK
Assay type: in vivo, human
study.conditions: human, plasma, oral, 100 mg single + diltiazem ER 240 mg QD
measured.metric: Cmax
Number first, unit second: that is the form wanted.

### Prompt Give reported Cmax value for O=C(Nc1ccc(C[C@@H]2CC[C@H]([C@H](O)c3ccccc3)N2)cc1)[C@@H]1CCc2nccc(=O)n21
### Response 167 ng/mL

###

protocol.summary: Effect of food on oral absorption
Format: in vivo, human
study.conditions: male, human, plasma, oral, 50 mg, single 50 mg, non-Japanese young males, fed
measured.metric: AUC(0-inf) (ng·h/mL)
One number for each entry, in ng·h/mL.

### Prompt Give reported AUC(0-inf) value for O=C(Nc1ccc(C[C@@H]2CC[C@H]([C@H](O)c3ccccc3)N2)cc1)[C@@H]1CCc2nccc(=O)n21
### Response 316

###

protocol.summary: Multiple rising dose Phase 1 PK, healthy subjects, day 14 (young males unless stated)
Format: in vivo, human
study.conditions: male, human, plasma, oral, 50 mg, 50 mg QD, Japanese; read-out: Cmax
measured.metric: Cmax (ng/mL)
Give bare numbers, in ng/mL.

### Prompt Give reported Cmax value for O=C(Nc1ccc(C[C@@H]2CC[C@H]([C@H](O)c3ccccc3)N2)cc1)[C@@H]1CCc2nccc(=O)n21
### Response 56.9
